test system: SEM cells; experiment: cell viability relative to DMSO control; higher = less cytotoxic; conditions: RPMI 5 mM glucose + 10% dialyzed FBS; 48 h; 46.1 µM
endpoint.name: cell viability (%)
Report the value in % with no unit label.

// worked examples, cell viability included
OC1=C(C=CC=C1)C2=CC=C(C=C2)C3=CSC4=C3C(=C(/C#N)C(=O)N4)/O    100
CCCCOc1ccc(C(=O)Nc2ccc(F)cc2F)cc1    76.7

Continue with the compound presented below.
I have this compound here, Cc1ccccc1C(C(=O)NC1CCCCC1)N(C(=O)CNc1ccc(C#N)cc1)c1cccc(F)c1 (stereo not drawn) , and I need its recorded cell viability.
89.5

----------
system: NOMO1; assay: cell viability relative to DMSO control; higher = less cytotoxic; conditions: HPLM + 10% dialyzed FBS; 48 h; 46.1 µM
This listing pairs compounds with measured cell viability.
Field format: number, assumed %, no unit text.

Consider the reported cell viability for these compounds:
COC1=CC=C2C(=CC=NC2=C1)OC3=CC=C(NC(=O)\C4=C(C)\N(CC(C)(C)O)N(C4=O)C5=CC=CC=C5)C=C3F    105
CC1OC(OC/2=C(/OC3=C(C(=CC(=C3)O)O)C2=O)C4=CC=C(O)C=C4)C(O)C(OC(C)=O)C1OC(C)=O (stereo not drawn)    78.9
CN(C)c1ccc(C(=O)NCCCCCCC(=O)NO)cc1    3.88

Give the measured cell viability of COc1cc2ncnc(Nc3ccc(F)c(Cl)c3)c2cc1OCCCN1CCOCC1 .
29.2

Quick one: cell viability of CN[C@@H](C)C(=O)N[C@H]1CCCC[C@H]2CC[C@@H](C(=O)N[C@@H](c3ccccc3)c3cn(CCCCc4ccc(CCCCn5cc([C@@H](NC(=O)[C@@H]6CC[C@@H]7CCCC[C@H](NC(=O)[C@H](C)NC)C(=O)N76)c6ccccc6)nn5)cc4)nn3)N2C1=O ?
33.4

Requested read-out: cell viability. Entry: COc1ccc(-c2c(-c3ccc(O)cc3O)n[nH]c2C)cc1
59

For the compound shown here, O=P(O)(O)C(O)(Cc1cccnc1)P(=O)(O)[O][Na] (stereo not drawn) , give the reported cell viability.
106

Please look up its cell viability: N#Cc1c(C2CCNCC2)cc(-c2c(O)cccc2OCC2CC2)nc1N
99.1

----------
test system: NOMO1; assay: cell viability relative to DMSO control; higher = less cytotoxic; details: RPMI 5 mM glucose + 10% dialyzed FBS; 48 h; 5.12 µM
Listed here are compounds together with their documented cell viability.

CC1=C2N=C([NH]C2=CC(=C1)N3CCOCC3)\C4=C(NC[C@@H](O)C5=CC=CC(=C5)Cl)\C=C/NC4=O    53.6%
N#Cc1c(C2CCNCC2)cc(-c2c(O)cccc2OCC2CC2)nc1N    94.2%
CCCCc1oc2ccc(NS(C)(=O)=O)cc2c1C(=O)c1ccc(OCCCN(CCCC)CCCC)cc1    28.3%
COc1cc2ncnc(Nc3ccc(F)c(Cl)c3)c2cc1OCCCN1CCOCC1    93.4%
Cn1c(=O)c2c(ncn2CC(O)CO)n(C)c1=O (stereo not given)    111%
C[C@H]1CCC/C=C/C2C[C@H](O)C[C@H]2[C@H](O)/C=C/C(=O)O1 (stereo not given in full)    2.6%

Need cell viability, item Cc1ccccc1C(C(=O)NC1CCCCC1)N(C(=O)CNc1ccc(C#N)cc1)c1cccc(F)c1 (stereo not given)
80.3%

What value of cell viability has been recorded for this entry: CC1(C)OC/2=C(\[C@H](NCC3=CC=CC=C3)[C@@H]1O)C(=O)C4=CC=CC=C4C2=O
60.2%

Fill blank: measured cell viability of the compound CN1C(=O)COc2c(C(=O)NC3CN4CCC3CC4)cc(Cl)cc21 (stereo not given) is ____.
90.5%

Which cell viability value is on record for COc1ccc([C@@H]2CNC(=O)C2)cc1OC1CCCC1 ?
112%

// lookup cell viability for COc1ccc(CCC(=O)Nc2nc3ccc(Cl)cc3s2)cc1OC
104%

May I ask what cell viability has been recorded for CC1(C)CC(=O)c2c(C(F)(F)F)nn(-c3ccc(C(N)=O)c(NC4CCC(OC(=O)CN)CC4)c3)c2C1 (stereo not given) ?
13.4%

Which cell viability value is on record for CN(C)c1ccc(C(=O)NCCCCCCC(=O)NO)cc1 ?
7.05%

Value lookup for cell viability; key = COC1=CC=C(C=C1)C/2=C/OC3=CC(=CC=C3C2=O)O
111%

For the compound N=C(N)c1ccc(OCCCCCOc2ccc(C(=N)N)cc2)cc1 , what cell viability is on record?
98.3%
